target: CETP (Homo sapiens); experiment: Assay of CETP Inhibition using Purified Components (Reconstituted Buffer Assay); type: biochemical; design: made in house; host or cells: CHO cells (serum-free conditioned medium); settings: Inhibition of CETP activity in reconstituted buffer assay; transfer of [3H]CE from HDL to LDL; read-out: IC50
Sequence (P11597 18-493): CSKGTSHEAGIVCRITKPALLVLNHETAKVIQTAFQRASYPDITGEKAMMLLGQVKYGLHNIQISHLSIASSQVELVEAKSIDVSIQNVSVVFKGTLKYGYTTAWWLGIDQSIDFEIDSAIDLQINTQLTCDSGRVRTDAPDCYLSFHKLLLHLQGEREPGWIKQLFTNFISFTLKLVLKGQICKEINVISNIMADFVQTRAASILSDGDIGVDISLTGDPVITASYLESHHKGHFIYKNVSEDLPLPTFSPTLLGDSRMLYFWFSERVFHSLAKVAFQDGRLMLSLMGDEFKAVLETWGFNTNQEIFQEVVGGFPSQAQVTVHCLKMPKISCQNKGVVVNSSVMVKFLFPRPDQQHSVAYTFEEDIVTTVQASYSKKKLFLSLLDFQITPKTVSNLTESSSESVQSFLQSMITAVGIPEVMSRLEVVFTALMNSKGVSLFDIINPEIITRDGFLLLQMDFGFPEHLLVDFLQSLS
measured-attribute: pIC50
When answering, recall that pIC50 equals minus log10 of the concentration in mol/L, and write that number alone.

>>> endpoint_result("Cc1ccc(CN(CC(O)C(F)(F)F)c2cccc(F)c2)cc1 (stereo not shown)")
4.82
>>> endpoint_result("Cc1ccc(COc2cccc(N(Cc3cccc(OC(F)(F)C(F)F)c3)CC(O)C(F)(F)F)c2)cc1 (stereo not shown)")
6.38
>>> endpoint_result("OC(CN(Cc1cccc(OC(F)(F)C(F)F)c1)c1cccc(-c2ccc(Cl)c(Cl)c2)c1)C(F)(F)F (stereo not shown)")
5.74

[in] In one line, give reported pIC50 of the entry OC(CN(Cc1ccc(Cl)cc1)Cc1cccc(C(F)(F)F)c1)C(F)(F)F (stereo not shown) .
[out] 4.82

[in] In one line, give reported pIC50 of the entry OC(CN(Cc1cccc(OC(F)(F)C(F)F)c1)c1cccc(-c2ccc(F)c(F)c2F)c1)C(F)(F)F (stereo not shown) .
[out] 6.00

Origin of values: patent US6723753B2
